Collected chromatographic logP values appear next to each entry.
# MEASUREMENT_NOTES: logP determination by HPLC on reversed-phase column (C18), EEC Directive 79/831 Annex V.A8
# Format: physicochemical
# CONDITION_NOTES: reversed-phase C18 HPLC column, reversed-phase C18, acetonitrile/water with formic acid
RECORDED_ENDPOINT: chromatographic logP

smiles_notation=CSc1c(C(F)(F)C(F)(F)F)nn(C)c1-n1cc(Br)cn1 recorded_measurement=3.95
smiles_notation=CSc1c(C(F)(F)C(F)(F)F)nn(C)c1-n1cc(-c2ccc(Cl)c(C(=O)NC3(C#N)CC3)c2)cn1 recorded_measurement=3.58
smiles_notation=Cn1nc(C(F)(F)C(F)(F)F)c(N)c1-n1cc(Br)cn1 recorded_measurement=2.68
